Reported IC50 is given for each of the following molecules.
# SUBJECT_OF_TEST: human TLR8 (Homo sapiens, UniProt Q9NR97)
# Sequence (Q9NR97 27-1041): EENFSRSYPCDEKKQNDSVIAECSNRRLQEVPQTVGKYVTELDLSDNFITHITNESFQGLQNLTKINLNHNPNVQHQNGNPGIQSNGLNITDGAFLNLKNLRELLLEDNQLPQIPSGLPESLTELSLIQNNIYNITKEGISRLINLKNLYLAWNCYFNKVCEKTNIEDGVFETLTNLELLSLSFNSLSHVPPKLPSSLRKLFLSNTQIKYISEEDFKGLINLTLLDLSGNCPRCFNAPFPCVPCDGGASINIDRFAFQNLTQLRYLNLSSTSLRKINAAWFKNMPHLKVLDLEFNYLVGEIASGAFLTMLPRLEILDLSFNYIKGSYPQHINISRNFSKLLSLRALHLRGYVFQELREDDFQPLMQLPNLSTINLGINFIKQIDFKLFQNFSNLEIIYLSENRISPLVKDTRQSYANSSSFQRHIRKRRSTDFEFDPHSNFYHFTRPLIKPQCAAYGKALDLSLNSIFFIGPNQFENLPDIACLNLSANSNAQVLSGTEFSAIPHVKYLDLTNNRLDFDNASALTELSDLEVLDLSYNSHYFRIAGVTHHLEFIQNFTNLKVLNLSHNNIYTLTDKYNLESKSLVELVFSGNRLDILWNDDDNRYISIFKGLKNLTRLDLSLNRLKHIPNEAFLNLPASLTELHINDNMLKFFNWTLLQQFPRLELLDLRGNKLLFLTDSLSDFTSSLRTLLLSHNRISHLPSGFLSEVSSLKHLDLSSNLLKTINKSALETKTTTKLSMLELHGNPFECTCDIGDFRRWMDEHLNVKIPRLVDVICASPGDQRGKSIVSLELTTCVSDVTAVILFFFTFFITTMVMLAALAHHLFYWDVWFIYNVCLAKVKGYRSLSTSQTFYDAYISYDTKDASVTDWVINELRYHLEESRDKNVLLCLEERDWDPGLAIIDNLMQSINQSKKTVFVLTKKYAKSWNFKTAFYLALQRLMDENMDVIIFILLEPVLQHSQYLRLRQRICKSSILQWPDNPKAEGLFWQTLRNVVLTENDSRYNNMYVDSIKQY
# PROCEDURE_TEXT: TLR8 inhibition reporter assay (HEK-Blue cells, SEAP reporter, R848 stimulation)
# CONDITION_LABEL: HEK-Blue cells overexpressing human TLR8, SEAP reporter, R848 15.9 μM
Your answer should be a plain number; it is taken to be in nM.

[
  {
    "MOLECULE": "CCC(CC)CN[C@H]1CC[C@H](NC(=O)c2n[nH]c(-c3cc(C)c4ncnn4c3)c2C(C)C)CC1 [Example 110]",
    "MEASUREMENT_TYPE": "IC50",
    "VALUE_REPORTED": 0.93
  }
]

Q. Which IC50 value is on record for Cc1cc(-c2[nH]nc(C(=O)NC3CCN(CC(C)(C)O)CC3)c2C(C)C)cn2ncnc12 [Example 138] ?
A. 3.96

Q. What do you get for Cc1cc(-c2[nH]nc(C(=O)N3CCOCC3)c2C(C)C)cn2ncnc12 [Example 30] ?
A. 2.07

Q. What do you get for Cc1cc(-c2[nH]nc(-c3cncc(N(C)C)c3)c2C(C)C)cn2ncnc12 [Example 238] ?
A. 5.96

Q. What do you get for Cc1cc(-c2[nH]nc(-c3cccc(N(C)C)c3)c2C(C)C)cn2ncnc12 [Example 245] ?
A. 0.65

Q. What do you get for Cc1c(C(=O)NC2CCN(C)CC2)n[nH]c1-c1cc(C)c2ncnn2c1 [compound 180] ?
A. 3.7

Q. What do you get for Cc1cc(-c2[nH]nc(C(=O)NC3CCCNC3)c2C(C)C)cn2ncnc12 (centres unmarked) [Example 66] ?
A. 16.9

---

# SUBJECT_OF_TEST: human TLR7 (Homo sapiens, UniProt Q9NYK1)
# Sequence (Q9NYK1 27-1049): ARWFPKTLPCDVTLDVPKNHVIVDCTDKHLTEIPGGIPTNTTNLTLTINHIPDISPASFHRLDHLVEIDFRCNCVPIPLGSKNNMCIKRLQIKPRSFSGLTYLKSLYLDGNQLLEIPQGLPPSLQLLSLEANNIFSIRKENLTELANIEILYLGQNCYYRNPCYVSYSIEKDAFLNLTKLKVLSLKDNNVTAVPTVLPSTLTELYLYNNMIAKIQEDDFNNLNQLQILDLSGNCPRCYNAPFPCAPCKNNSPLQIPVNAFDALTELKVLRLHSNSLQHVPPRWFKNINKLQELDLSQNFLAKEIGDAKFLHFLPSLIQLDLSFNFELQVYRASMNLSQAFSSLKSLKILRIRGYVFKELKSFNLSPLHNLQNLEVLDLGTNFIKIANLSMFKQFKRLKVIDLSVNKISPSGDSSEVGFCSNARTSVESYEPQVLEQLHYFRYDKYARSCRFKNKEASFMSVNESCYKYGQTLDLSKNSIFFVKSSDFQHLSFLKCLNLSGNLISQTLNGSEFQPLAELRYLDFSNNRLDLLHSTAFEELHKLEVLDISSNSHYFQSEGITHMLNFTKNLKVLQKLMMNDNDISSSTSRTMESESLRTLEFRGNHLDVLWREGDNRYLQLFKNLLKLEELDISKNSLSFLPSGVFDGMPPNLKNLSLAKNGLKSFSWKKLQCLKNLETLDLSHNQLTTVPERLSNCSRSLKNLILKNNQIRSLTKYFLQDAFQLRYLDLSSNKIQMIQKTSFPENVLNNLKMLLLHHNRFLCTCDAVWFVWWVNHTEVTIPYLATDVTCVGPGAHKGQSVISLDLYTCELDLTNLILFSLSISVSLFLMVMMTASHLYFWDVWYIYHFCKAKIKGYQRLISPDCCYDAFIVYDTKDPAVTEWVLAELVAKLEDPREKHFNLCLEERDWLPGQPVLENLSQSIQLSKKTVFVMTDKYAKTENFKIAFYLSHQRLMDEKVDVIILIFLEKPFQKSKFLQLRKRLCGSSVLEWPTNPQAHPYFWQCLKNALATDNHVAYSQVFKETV
# PROCEDURE_TEXT: TLR7 inhibition reporter assay (HEK-Blue cells, SEAP reporter, gardiquimod stimulation)
# CONDITION_LABEL: HEK-Blue cells overexpressing human TLR7, SEAP reporter, gardiquimod 7.5 μM
# Source text: TLR7/8/9 Inhibition Reporter Assays HEK-Blue™-cells (Invivogen) overexpressing human TLR7, TLR8 or TLR9 receptors were used for screening inhibitors of these receptors using an inducible SEAP (secreted embryonic alkaline phosphatase) reporter gene under the control of the IFN-β minimal promoter fused to five NF-κB and AP-1-binding sites. […]
Reported IC50 is given for each of the following compounds.
Your answer should be a plain number; it is taken to be in nM.

Consider the worked cases shown below.
[
  {
    "COMPOUND": "Cc1cc(-c2[nH]nc(-c3ccc(N4CC(NC(C)C)C4)cc3)c2C(C)C)cn2ncnc12 [Example 409]",
    "IC50, nM": 48.2
  },
  {
    "COMPOUND": "CCN1CC(C(=O)N(C)C2CCC(c3n[nH]c(-c4cc(C)c5ncnn5c4)c3C(C)C)CC2)C1 (single isomer, unassigned) [Example 306]",
    "IC50, nM": 148
  },
  {
    "COMPOUND": "Cc1cc(-c2[nH]nc(-c3cnc4c(c3)CNCC4)c2C(C)C)cn2ncnc12 [Example 230]",
    "IC50, nM": 4.92
  }
]

Q. Which IC50 value is on record for Cc1cc(-c2[nH]nc(-c3ncc4c(n3)CNC4)c2C(C)C)cn2ncnc12 [Example 216] ?
A. 0.72

Q. What do you get for CCC(CC)CN[C@H]1CC[C@H](NC(=O)c2n[nH]c(-c3cc(C)c4ncnn4c3)c2C(C)C)CC1 [Example 110] ?
A. 2.21

Q. What do you get for Cc1cc(-c2[nH]nc(C(=O)NC3CCN(C4CCOCC4)CC3)c2C(C)C)cn2ncnc12 [Example 153] ?
A. 27.8

Q. What do you get for Cc1cc(-c2[nH]nc(C(=O)N[C@H]3CC[C@@H](NC(C)C(C)(C)C)CC3)c2C(C)C)cn2ncnc12 (stereo partly shown) [Example 150] ?
A. 0.57

Q. What do you get for Cc1cc(-c2[nH]nc(-c3cccc(N)c3)c2C(C)C)cn2ncnc12 [Example 232] ?
A. 4.19

Q. What do you get for COc1cc(-c2[nH]nc(C(=O)N3CCCN(C)CC3)c2C(C)C)cn2ncnc12 [Example 10] ?
A. 1.37

Q. What do you get for CCN1CCc2nc(-c3n[nH]c(-c4cc(C)c5ncnn5c4)c3C(C)C)ncc2C1 [Example 249] ?
A. 6.34

---

# SUBJECT_OF_TEST: UniProt:Q9NYK1
# PROCEDURE_TEXT: TLR7 inhibition reporter assay (HEK-Blue cells, SEAP reporter, gardiquimod stimulation)
# CONDITION_LABEL: HEK-Blue cells overexpressing human TLR7, SEAP reporter, gardiquimod 7.5 μM
MEASUREMENT_TYPE: log10 IC50 (log10 of the value in nM)
Could you please treat all values as log10 of IC50 in nM?

[
  {
    "COMPOUND_STRUCTURE": "Cc1noc(C)c1CN1CCC(NC(=O)c2n[nH]c(-c3cc(C)c4ncnn4c3)c2C(C)C)CC1",
    "VALUE_REPORTED": -0.23
  }
]

Q. Notebook: pull reported log10 IC50 for UniProt:Q9NYK1, entry "Cc1cc(-c2[nH]nc(C(=O)NC3CCN(C(C)C)CC3)c2C(C)C)cc(C)n1"
A. 3.11

Q. What do you get for "Cc1cc(-c2[nH]nc(C(=O)NC3CNC3)c2C(C)C)cn2ncnc12" ?
A. 0.48

Q. What do you get for "Cc1cc(-c2[nH]nc(C(=O)N(C)CCCN(C)C)c2C(C)C)cn2ncnc12" ?
A. 1.64

Q. What do you get for "Cc1cc(-c2[nH]nc(-c3ccc4c(c3)CCN(C(=O)CN(C)C)C4)c2C(C)C)cn2ncnc12" ?
A. 1.61

Q. What do you get for "Cc1cc(-c2[nH]nc(C(=O)N[C@H]3CC[C@@H](NCC(C)(C)C)CC3)c2C(C)C)cn2ncnc12" ?
A. 0.17

Q. What do you get for "Cc1cc(-c2[nH]nc(C(=O)N[C@H]3CCCN(C4COC4)C3)c2C(C)C)cn2ncnc12" ?
A. -0.06

Q. What do you get for "COc1cc(-c2[nH]nc(-c3ccc(C4CN(CC(C)(C)O)C4)cc3)c2C(C)C)cn2ncnc12" ?
A. 0.92
